Where these numbers come from: patent US20250163119A1

System tested: T1, human corticotropin-releasing hormone receptor 1 (CRHR1) (human, UniProt P34998 24-415)
T1 sequence (looked up): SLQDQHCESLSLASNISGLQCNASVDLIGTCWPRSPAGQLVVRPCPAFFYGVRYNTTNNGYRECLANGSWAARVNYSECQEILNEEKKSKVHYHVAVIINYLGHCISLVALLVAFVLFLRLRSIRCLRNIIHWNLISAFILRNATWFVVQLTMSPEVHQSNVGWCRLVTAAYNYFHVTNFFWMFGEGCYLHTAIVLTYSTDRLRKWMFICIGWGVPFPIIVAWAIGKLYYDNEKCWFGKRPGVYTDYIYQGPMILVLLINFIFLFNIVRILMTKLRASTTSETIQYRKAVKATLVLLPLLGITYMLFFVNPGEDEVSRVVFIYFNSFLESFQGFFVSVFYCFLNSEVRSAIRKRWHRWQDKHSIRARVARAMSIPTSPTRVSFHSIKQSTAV
Run description: cell-based or functional assay
*1 amine or outer side, *2 acyl side, *3 side chain or, on linkers, in order; H or OH if unused. Where no end group is shown, it is not given here. Side-chain parts run from the residue outwards. [ ]: non-standard residue; d: D form. The star is where a group is joined. C20 diacid = O=C(O)CCCCCCCCCCCCCCCCCCC(=O)*; C18 diacid = O=C(O)CCCCCCCCCCCCCCCCC(=O)*; γGlu = O=C(O)[C@H](CCC(=O)[*:2])N[*:1]; εLys = N[C@@H](CCCCN[*:1])C(=O)[*:2]; pGlu = O=C1CC[C@@H](C(=O)O)N1; αMeL = CC(C)C[C@](C)(N)C(=O)O; AEEA = NCCOCCOCC(=O)O; Aib = CC(C)(N)C(=O)O
Readout kind: hCRHR1 cAMP EC50

INSERT INTO assay_data (binder, measured_value) VALUES
  ('Ac-IVTS[αMeL]D[dV]PTG[αMeL]LQIKLEQERAEKARQQAKENTEILAQV-NH2 (not fully specified (residue 29)) [polypeptide comprising SEQ ID NO:34]', '> 10 µM'),
  ('Ac-IVTS[αMeL]D[dV]PI[Aib][αMeL]LQIKLEQERAEKARQQAKENTEILAQV-NH2 (not fully specified (residue 29)) [polypeptide comprising SEQ ID NO:51]', '4.3 µM'),
  ('Ac-IVTS[αMeL]D[dV]PTG[αMeL]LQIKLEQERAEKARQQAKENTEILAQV-NH2 (not fully specified (residue 29)) [polypeptide comprising SEQ ID NO:39]', '3.7 µM'),
  ('Ac-GSPSIVTS[αMeL]DVPT[Aib][αMeL]LQKLLEQERAEKARQQAK([γGlu-AEEA-Lys-C18 diacid])EAAEILAQV-NH2 (not fully specified) [polypeptide comprising SEQ ID NO:12]', '> 10 µM'),
  ('Ac-GSPSIVTS[αMeL]DVPT[Aib][αMeL]LQKILEQERAEKARQQAKEAAEILAQV-NH2 [polypeptide comprising SEQ ID NO:20]', '> 10 µM'),
  ('Ac-GSPSIVTS[αMeL]DVPT[Aib][αMeL]LQKILEQERAEKARQQAK([γGlu-Pro-Pro-Pro-εLys-C20 diacid])EAAEILAQV-NH2 [polypeptide comprising SEQ ID NO:14]', '> 10 µM'),
  ('Ac-IVTS[αMeL]D[dV]PTG[αMeL]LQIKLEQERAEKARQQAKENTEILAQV-NH2 (not fully specified (residue 29)) [polypeptide comprising SEQ ID NO:44]', '> 10 µM'),
  ('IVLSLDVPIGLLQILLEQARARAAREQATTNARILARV-NH2 (ligand) [Human urocortin-2 (UCN2)]', '> 10 µM'),
  ('[pGlu]GSPSGIVTS[αMeL]DVPT[Aib][αMeL]LQKILEQERAEKARQQAK([γGlu-AEEA-εLys-C20 diacid])EAAEILAQV-NH2 [polypeptide comprising SEQ ID NO:22]', '> 10 µM');
